// data source = patent US20160264649A1

Assignment: determine reported IC50, TZM-bl pseudovirus neutralization for the given binders.
- TARGET_ENTITY: HIV-1 JR-CSF Env Y318A (HIV-1) (UniProt P20871)
- METHOD: cell-based or functional assay

Worked examples, 3 binders total:
1456_A12 (PG16) (TCN-117) (antibody, V domains shown) VH: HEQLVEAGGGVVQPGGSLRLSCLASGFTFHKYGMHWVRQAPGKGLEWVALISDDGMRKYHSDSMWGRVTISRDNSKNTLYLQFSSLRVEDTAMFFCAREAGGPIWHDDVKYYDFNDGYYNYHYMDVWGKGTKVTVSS VL: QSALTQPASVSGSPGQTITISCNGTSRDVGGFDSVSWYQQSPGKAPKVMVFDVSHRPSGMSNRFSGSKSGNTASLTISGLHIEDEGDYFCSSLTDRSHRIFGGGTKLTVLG = > 1 µg/mL
1489_I13 (PG16) (TCN-120) (antibody, V domains shown) VH: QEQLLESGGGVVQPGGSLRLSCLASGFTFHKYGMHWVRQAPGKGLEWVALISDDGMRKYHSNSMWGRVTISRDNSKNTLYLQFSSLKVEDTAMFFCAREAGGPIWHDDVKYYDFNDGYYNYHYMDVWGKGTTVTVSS VL: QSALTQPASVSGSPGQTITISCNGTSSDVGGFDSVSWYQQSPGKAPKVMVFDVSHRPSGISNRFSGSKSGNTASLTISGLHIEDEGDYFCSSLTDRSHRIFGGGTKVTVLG = > 1 µg/mL
1469_M23 (PG16) (TCN-118) (antibody, V domains shown) VH: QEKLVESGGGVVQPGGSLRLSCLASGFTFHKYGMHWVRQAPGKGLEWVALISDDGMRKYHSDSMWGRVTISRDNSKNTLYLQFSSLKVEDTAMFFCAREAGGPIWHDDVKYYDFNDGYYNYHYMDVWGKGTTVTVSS VL: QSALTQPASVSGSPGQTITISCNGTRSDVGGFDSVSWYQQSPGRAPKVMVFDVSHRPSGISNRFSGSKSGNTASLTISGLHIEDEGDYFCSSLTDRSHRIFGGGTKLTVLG = > 1 µg/mL

Here is the next item to consider.
Tell me the measured IC50, TZM-bl pseudovirus neutralization of 1503_H05 (PG16) (TCN-119) (antibody, V domains shown) VH: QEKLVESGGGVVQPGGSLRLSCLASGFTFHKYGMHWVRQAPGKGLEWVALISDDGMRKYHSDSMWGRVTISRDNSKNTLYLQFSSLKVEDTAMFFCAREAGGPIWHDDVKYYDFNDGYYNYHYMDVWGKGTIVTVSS VL: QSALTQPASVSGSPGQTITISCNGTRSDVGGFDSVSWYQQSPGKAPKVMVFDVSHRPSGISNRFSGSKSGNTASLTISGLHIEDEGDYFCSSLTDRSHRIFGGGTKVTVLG , please.
> 1 µg/mL
